Assay: qHTS assay to identify small molecule inhibitors of chordoma cells - UCH-2 (AID 1259356); also: % is scaled to controls: 0 for no effect and ±100 for the full control effect
Conditions: UCH-2 chordoma viability, CellTiter-Glo ATP luminescence, 48 h; series mostly up to 46.1 µM
Text: NIH Chemical Genomics Center [NCGC] Chordoma is a rare and slow growing tumor that can occur anywhere along the spine, from the base of the skull to the tailbone. Current treatment options for chordoma is surgery and radiation therapy for those who are not candidates for surgery. But chordomas tend to return in the same location or surrounding areas of the original tumor after surgery and/or radiation. Chemotherapy can slow down the progression of the tumor. […]
Inconclusive results are not listed. Activity calls are given as the source filed them. Calls follow the shape of the dose curve; as a rule, active = well fitted cell-killing curve with a large enough effect; inconclusive = small, poorly fitted or top-dose-only effect; inactive = flat fitted curve, though single readings scatter.
Field 'call' accepts active, inactive

Below are worked cases with known answers.
[[record]]
compound = "CNC(=O)C[C@@H](N)C(=O)N[C@@H](C(=O)N[C@@H]1C(=O)N2[C@@H]1SC(C)(C)[C@@H]2C(=O)O)c1ccc(O)cc1"
label = "inactive"

[[record]]
compound = "Cc1ccc(S(=O)(=O)O)cc1C"
label = "inactive"

[[record]]
compound = "NS(=O)(=O)c1cc2c(cc1Cl)NC(Cc1ccccc1)NS2(=O)=O (configuration not stated)"
label = "inactive"


Request: Dear colleague, could you share the recorded outcome for "NC(=O)[C@@H]1C[C@]2(NC(=O)NC2=O)c2cc(F)ccc2O1" when you have a moment?
Result: inactive

Request: Dear colleague, could you share the recorded outcome for "COc1ccc(/C=C/C(=O)O)cc1" when you have a moment?
Result: inactive

Request: Dear colleague, could you share the recorded outcome for "CCN(CC)CCOc1ccc2nc(N(C)C)sc2c1" when you have a moment?
Result: inactive

Request: Dear colleague, could you share the recorded outcome for "C/C=C/C=C/C(=O)O" when you have a moment?
Result: inactive

Request: Dear colleague, could you share the recorded outcome for "O=C(O)c1cc(O)c2c(c1)[C@H]([C@H]1c3cc(C(=O)O)cc(O)c3C(=O)c3c(O[C@@H]4O[C@H](CO)[C@@H](O)[C@H](O)[C@H]4O)cccc31)c1cccc(O[C@@H]3O[C@H](CO)[C@@H](O)[C@H](O)[C@H]3O)c1C2=O" when you have a moment?
Result: inactive

Request: Dear colleague, could you share the recorded outcome for CC[C@@]1([C@@H]2O[C@@H]([C@H]3O[C@@](O)(CO)[C@H](C)C[C@@H]3C)C[C@@H]2C)CC[C@H]([C@]2(C)CC[C@]3(C[C@H](O)[C@@H](C)[C@@H]([C@@H](C)[C@@H](OC)[C@H](C)C(=O)O)O3)O2)O1 (stereo in doubt) when you have a moment?
Result: inactive

---

Assay: Drug repurposing screens with cells derived from glioblastoma tumor samples (AID 1345199); also: % is scaled to controls: 0 for no effect and ±100 for the full control effect; nearly all actives have a fitted effect of over 40% in size
Conditions: GBM patient neurospheres viability, ATP luminescence, 48 h; at 45.9 µM (top of the series); tumour line B
Results filed as inconclusive are left out.
measuredEndpoint: activity, negative = cell killing (%)
A number alone suffices; assume %.

# example entries with known answers
[[record]]
molecule = "CC(C)[C@H](N)C(=O)OCC(CO)OCn1cnc2c(=O)[nH]c(N)nc21 (some centres not stated)"
measuredendpoint = "activity, negative = cell killing"
unitofmeasurement = "%"
recordedmeasurement = -16.2

[[record]]
molecule = "CC(C)(C)NCC(O)CSc1nc(-c2ccc(C(N)=O)s2)cs1 (configuration not stated)"
measuredendpoint = "activity, negative = cell killing"
unitofmeasurement = "%"
recordedmeasurement = -20.2

[[record]]
molecule = "O=C(CCCCCCCCCCCCC1CCCC1)Nc1ccc(S(=O)(=O)c2ccc(NC(=O)CCCCCCCCCCCCC3CCCC3)cc2)cc1"
measuredendpoint = "activity, negative = cell killing"
unitofmeasurement = "%"
recordedmeasurement = 0.38


The value of activity, negative = cell killing measured for the molecule "Cc1ccc(S(=O)(=O)NCl)cc1" turned out to be -6.22

The value of activity, negative = cell killing measured for the molecule "C[C@@](Cc1ccc(O)c(O)c1)(NN)C(=O)O" turned out to be -16.8

The value of activity, negative = cell killing measured for the molecule "NC(N)=O" turned out to be -9.26

The value of activity, negative = cell killing measured for the molecule "O=C(O)[C@@H]1C[C@H](CP(=O)(O)O)CCN1" turned out to be -4.93

The value of activity, negative = cell killing measured for the molecule "CCOC(=S)SSC(=S)OCC" turned out to be -12.5

The value of activity, negative = cell killing measured for the molecule "COc1ccc(-c2noc(CC(=O)O)c2-c2ccc(OC)cc2)cc1" turned out to be -13.4

The value of activity, negative = cell killing measured for the molecule "CC(=O)N[C@@H](C=O)[C@@H](O)[C@H](O)[C@H](O)CO" turned out to be -6.52

The value of activity, negative = cell killing measured for the molecule "Cc1cccc(C)c1NC(=O)NC1=CCCN1C" turned out to be -5.38

The value of activity, negative = cell killing measured for the molecule "O=C1c2ccccc2C(=O)C1c1ccc(Cl)cc1" turned out to be -10.4

---

Assay: Drug repurposing screens with cells derived from glioblastoma tumor samples (AID 1345199); also: % is scaled to controls: 0 for no effect and ±100 for the full control effect; nearly all actives have a fitted effect of over 40% in size
Settings: GBM patient neurospheres viability, ATP luminescence, 48 h; at 45.9 µM (top of the series); tumour line B
Inconclusive results are not listed.
measuredEndpoint: activity, negative = cell killing (%)
A number alone suffices; assume %.

# example entries with known answers
[[record]]
querysmiles = "O=S(=O)(O)CCCS(=O)(=O)O"
unitofmeasurement = "%"
recordedmeasurement = -8.81

[[record]]
querysmiles = "O=C(O)c1cc(O)c2c(c1)[C@H]([C@H]1c3cc(C(=O)O)cc(O)c3C(=O)c3c(O[C@@H]4O[C@H](CO)[C@@H](O)[C@H](O)[C@H]4O)cccc31)c1cccc(O[C@@H]3O[C@H](CO)[C@@H](O)[C@H](O)[C@H]3O)c1C2=O"
unitofmeasurement = "%"
recordedmeasurement = -24.5

[[record]]
querysmiles = "Cc1ncc(COP(=O)(O)O)c(CN)c1O"
unitofmeasurement = "%"
recordedmeasurement = -10.4

[[record]]
querysmiles = "CCc1ccc(S(=O)(=O)O)cc1"
unitofmeasurement = "%"
recordedmeasurement = 3.64

[[record]]
querysmiles = "C[C@H](N)C(=O)N[C@@H](C)P(=O)(O)O"
unitofmeasurement = "%"
recordedmeasurement = -6.14


The value of activity, negative = cell killing measured for the compound "CC(C)(C)CC(C)(C)c1cc(Cc2cc(C(C)(C)CC(C)(C)C)cc(-n3nc4ccccc4n3)c2O)c(O)c(-n2nc3ccccc3n2)c1" turned out to be -3.94

The value of activity, negative = cell killing measured for the compound "CC(C)C1=CC2=CC[C@@H]3[C@](C)(CCC[C@@]3(C)C(=O)O)[C@H]2CC1" turned out to be -3.87

---

System: astro
Experiment: Drug repurposing screens with cells derived from glioblastoma tumor samples (AID 1345199); also: % is scaled to controls: 0 for no effect and ±100 for the full control effect; nearly all actives have a fitted effect of over 40% in size
Conditions: viability, ATP luminescence, 48 h; series mostly up to 45.9 µM
Records with an inconclusive call do not appear. Active and inactive are the calls of the source. Calls come from the whole dose curve; as a rule, active = well fitted inhibition curve with a large enough effect; inconclusive = small, poorly fitted or top-dose-only effect; inactive = flat fitted curve, though single readings scatter.
measuredEndpoint: outcome

[[record]]
compound = "CN[C@H](CC(C)C)C(=O)N[C@H]1C(=O)N[C@@H](CC(N)=O)C(=O)N[C@H]2C(=O)N[C@H]3C(=O)N[C@H](C(=O)N[C@@H](C(=O)O)c4cc(O)cc(O)c4-c4cc3ccc4O)[C@H](O)c3ccc(c(Cl)c3)Oc3cc2cc(c3O[C@@H]2O[C@H](CO)[C@@H](O)[C@H](O)[C@H]2O[C@H]2C[C@](C)(N)C(O)[C@H](C)O2)Oc2ccc(cc2Cl)[C@H]1O (stereo partly drawn)"
recordedmeasurement = "inactive"

[[record]]
compound = "NC(N)=O"
recordedmeasurement = "inactive"

[[record]]
compound = "CC(=O)Oc1cccc(C(=O)O)c1OC(C)=O"
recordedmeasurement = "inactive"


---

Target: Peroxisome proliferator-activated receptor gamma (Homo sapiens) (UniProt P37231)
Sequence (P37231 whole entry, looked up): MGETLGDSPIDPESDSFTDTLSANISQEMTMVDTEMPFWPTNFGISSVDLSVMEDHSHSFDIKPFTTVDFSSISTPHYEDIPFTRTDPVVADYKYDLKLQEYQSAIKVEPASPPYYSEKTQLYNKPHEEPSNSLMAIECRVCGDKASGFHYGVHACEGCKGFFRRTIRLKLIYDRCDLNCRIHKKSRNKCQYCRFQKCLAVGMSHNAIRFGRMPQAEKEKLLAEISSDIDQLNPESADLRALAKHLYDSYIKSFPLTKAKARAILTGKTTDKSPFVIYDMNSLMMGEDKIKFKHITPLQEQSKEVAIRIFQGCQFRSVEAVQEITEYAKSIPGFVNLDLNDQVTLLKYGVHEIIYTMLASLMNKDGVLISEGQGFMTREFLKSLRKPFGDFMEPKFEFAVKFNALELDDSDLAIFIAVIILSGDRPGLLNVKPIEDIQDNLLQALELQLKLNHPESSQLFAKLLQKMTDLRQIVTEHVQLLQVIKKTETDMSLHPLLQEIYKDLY
Test: qHTS assay for small molecule antagonists of peroxisome proliferator-activated receptor gamma signaling (AID 588537);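 also: reporter cells co-stimulated with 50 nM rosiglitazone agonist during compound treatment; % of control where 0% means no effect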
Settings: HEK293 PPARg-UAS-bla, beta-lactamase ratio, antagonist mode; series mostly up to 76.8 µM
Records with an inconclusive call do not appear. The source made the active and inactive calls. Calls come from the whole dose curve; as a rule, active = well fitted inhibition curve with a large enough effect in the signal ratio, with a control signal flat (not every such curve was filed as active); inconclusive = small, poorly fitted or top-dose-only effect, or effect the other way, or a change in a side signal; inactive = flat fitted curve, though single readings scatter; the % refers to the signal ratio.
measuredEndpoint: outcome

# example entries with known answers
[[record]]
querysmiles = "CC(C)CCCCCCc1ccc(O)cc1"
measuredendpoint = "outcome"
recordedmeasurement = "inactive"

[[record]]
querysmiles = "OC[C@H]1O[C@@](CO)(O[C@H]2O[C@H](CO)[C@@H](O)[C@H](O)[C@H]2O)[C@@H](O)[C@@H]1O"
measuredendpoint = "outcome"
recordedmeasurement = "inactive"

[[record]]
querysmiles = "Cc1ncc[nH]1"
measuredendpoint = "outcome"
recordedmeasurement = "inactive"

[[record]]
querysmiles = "NCCO/C=C/[C@H](N)C(=O)O"
measuredendpoint = "outcome"
recordedmeasurement = "inactive"

[[record]]
querysmiles = "O.O.O.O.O.O.O.O=S(=O)([O-])[O-].[Co+2]"
measuredendpoint = "outcome"
recordedmeasurement = "inactive"


The value of outcome measured for the molecule "NC(N)=O" turned out to be inactive

The value of outcome measured for the molecule "CC(C)[C@@H]1CC[C@@H](C)C[C@H]1O" turned out to be inactive

The value of outcome measured for the molecule "OCc1ccccc1" turned out to be inactive

Value source: PubChem BioAssay (NCATS)
